molecular target: Fibroblast growth factor 10 (Homo sapiens); experiment: compounds binding fibroblast growth factor 10 – biochemical, small-molecule microarray, 635 nm fluorescence, primary screen (AID 1102); settings: FGF10 binding, fluorescence 635 nm, higher = more signal
Quick rule for you: composite z-score at 1 or higher means 1 (yes), lower means 0 (no).

CCCC=C(CCC)[C@@H](NP(=O)(c1ccccc1)c1ccccc1)c1ccc(-c2ccccc2)cc1
1 (yes)
COC(=O)[C@@]1(Cc2ccc(OC)cc2)[C@H]2c3cc(C(=O)N(C)C)n(Cc4ccc(OC(F)(F)F)cc4)c3C[C@H]2CN1C(=O)c1ccccc1
0 (no)
C=CC[C@@]1(C(=O)NCCCOC)N=C(c2ccc(OCCCO)cc2)O[C@@H]1c1ccccc1N=[N+]=[N-]
0 (no)
CCOC(=O)C[C@H]1[C@H](OC(=O)c2ccc(C(=O)c3ccccc3)cc2)[C@@H](NC(=O)C2CCCCC2)c2cc(OCCCO)ccc2N1C(=O)c1ccc2ccccc2n1
0 (no)
CO[C@H]1O[C@H](CO)[C@@H](OC(=O)Nc2ccc3c(c2)OCO3)[C@H](OC(=O)Nc2ccc3c(c2)OCO3)[C@@H]1OC(=O)Nc1ccc2c(c1)OCO2
1 (yes)
CC(C)[Si](C#C[Si](C(C)C)(C(C)C)C(C)C)(O[C@H](c1ccccc1)c1cn(Cc2ccccc2)nn1)C(C)C
0 (no)

Data request: Could you verify whether the entry C=CCNC(=O)[C@H]1[C@@H]2C(=O)O[C@@H](c3ccccc3)[C@@H](c3ccccc3)N2[C@@H](c2ccccc2OCCO)[C@]12C(=O)N(C(=O)OCCOC)c1ccc(C#CC3(O)CCCCCC3)cc12 shows composite z-score of no less than 1?
Data returned: 1 (yes)

Data request: Determine whether this compound has composite z-score no lower than 1: C=C[C@H]1C(C(=O)OCC)=CC[C@@H](c2ccccc2)N1S(=O)(=O)c1ccc(C)cc1
Data returned: 0 (no)

Data request: Dear colleague, could you confirm whether CC(C)N1CC=CC23O[C@@H]4C=CCCOC(=O)C4[C@H]2C(=O)N(CCCO)[C@@H]3C1=O (stereo partly drawn) has composite z-score at or above 1?
Data returned: 0 (no)

Data request: Reported composite z-score reaches at least 1 for COC(=O)[C@@]1(Cc2ccc(OC)cc2)[C@H]2c3cc(C(=O)N(C)C)n(Cc4ccc(C)o4)c3C[C@H]2CN1C(=O)c1ccccc1 ?
Data returned: 0 (no)

Data request: Kindly determine if composite z-score recorded for COC(=O)[C@@]1(Cc2ccc(F)cc2)[C@H]2c3cc(C(=O)N(C)C)n(CCc4ccc(OC)c(Br)c4)c3C[C@H]2CN1C(=O)c1ccccc1 is above or exactly 1.
Data returned: 0 (no)

Data request: Entry COc1cc2c(cc1O)C=[N+](Cc1sc3ccccc3c1Cl)CC2 : is its composite z-score no less than 1?
Data returned: 0 (no)

Data request: Is reported composite z-score greater than or equal to 1 here: C=CCOC(=O)[C@@H]1[C@H]2C(=O)O[C@H](c3ccccc3)[C@H](c3ccccc3)N2[C@H](c2ccc(OCCOC(=O)[C@@H]3C[C@@H]4C(=O)N[C@@H](CCCC[N+](C)(C)C)C(=O)N4[C@@H]3c3ccc(O)cc3)cc2)[C@@]12C(=O)Nc1ccc(I)cc12
Data returned: 1 (yes)
